We begin with a simple list: items and their reported recombinant UMI read abundance (log10).
assayInfo: recombinant UMI read abundance after kanamycin selection (control-corrected) (log10(CPM+1)); higher = more efficient recombination; extreme values may be limits of the assay; sequences stand for … in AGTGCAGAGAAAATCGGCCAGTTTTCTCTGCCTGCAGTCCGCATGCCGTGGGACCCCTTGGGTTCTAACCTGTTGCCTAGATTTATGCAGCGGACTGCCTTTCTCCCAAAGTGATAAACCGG…AGGTTGGTTTCACT; site = the 11-nt donor
Field format: numeric only.

Consider the reported recombinant UMI read abundance (log10) for these sequences:
orderedResidues: CGGAAATCATGGACCGGTTTTCCCGGTAATCCGTATTTGTT (site CGGAAATCTAA)
recombinant UMI read abundance (log10): 2.29

orderedResidues: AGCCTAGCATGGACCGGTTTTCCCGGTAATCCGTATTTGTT (site AGACTAGCTAA)
recombinant UMI read abundance (log10): 0.00397

orderedResidues: GAGCTCACATGGACCGGTTTTCCCGGTAATCCGTATTTGAG (site GAGCTCACTGT)
recombinant UMI read abundance (log10): 0

orderedResidues: CCGTTAGCATGGACCGGTTTTCCCGGTAATCCGTATTTGGG (site CCGTTAGCTCC)
recombinant UMI read abundance (log10): 0.00956

// below: recombinant UMI read abundance (log10) requested for another sequence
QUERY: What value of recombinant UMI read abundance (log10) has been reported for the following sequence? CTACTAACATGGACCGGTTTTCCCGGTAATCCGTATTTGGA (site CTACAAACTTC)
RESULT: 0.00657

* * *

assayInfo: recombinant barcode read abundance after kanamycin selection (control-corrected) (log10(CPM+1)); higher = more efficient recombination; sequences stand for … in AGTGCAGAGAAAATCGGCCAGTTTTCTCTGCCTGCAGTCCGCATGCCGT…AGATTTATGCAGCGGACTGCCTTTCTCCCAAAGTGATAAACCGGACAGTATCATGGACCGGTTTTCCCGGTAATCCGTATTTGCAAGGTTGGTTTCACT; site = the 11-nt target
Kind request: treat 0.1 as inclusive, so recombinant barcode read abundance (log10) at 0.1 or higher is 1.0, anything lower is 0.0.

As a guide, the following entries are already answered.
orderedResidues: GAGGGTCCTTGGGTTCTAACCTGTTGCTT (site GAGGGTCCTAC)
answerLabel: 1.0

orderedResidues: TGTACGACTTGGGTTCTAACCTGTTGCCT (site TGTACGACTAG)
answerLabel: 1.0

orderedResidues: ACGTTGTCTTGGGTTCTAACCTGTTGCCT (site ACGTTGTCTAG)
answerLabel: 1.0

orderedResidues: CTTGGACCTTGGGTTCTAACCTGTTGCCT (site CTTGGACCTAG)
answerLabel: 1.0

orderedResidues: CAAGATTCTTGGGTTCTAACCTGTTGCCT (site CCAGATTCTAG)
answerLabel: 1.0

orderedResidues: TCTAAGTCTTGGGTTCTAACCTGTTGCCA (site TCTAAGTCTTG)
answerLabel: 0.0

orderedResidues: TAACGACCTTGGGTTCTAACCTGTTGCCT (site AAACGACCTAG)
answerLabel: 0.0

orderedResidues: TAGCACTCTTGGGTTCTAACCTGTTGCAG (site TAGCACTCTCT)
answerLabel: 1.0

QUERY: State whether the measured recombinant barcode read abundance (log10) reaches 0.1, counting equality as reaching it, for TCGGATACTTGGGTTCTAACCTGTTGCGT (site TCGGATACTAT)
RESULT: 1.0

QUERY: Now the sequence AGTCGGACTTGGGTTCTAACCTGTTGCAC (site AGTCGGACTGT)
RESULT: 1.0

QUERY: Now the sequence GACCGGACTTGGGTTCTAACCTGTTGCGT (site GAGTGGACTAC)
RESULT: 0.0

QUERY: Now the sequence TAGCTGACTTGGGTTCTAACCTGTTGCCC (site TAGCTGACTGG)
RESULT: 1.0

QUERY: Now the sequence GTCCAGTCTTGGGTTCTAACCTGTTGCGT (site GTCCAGTCTAC)
RESULT: 1.0
